The origin of these recorded values is patent US20220144854A1.

Biological target: Mcl-1 (Homo sapiens, UniProt Q07820)
Sequence (Q07820 whole entry): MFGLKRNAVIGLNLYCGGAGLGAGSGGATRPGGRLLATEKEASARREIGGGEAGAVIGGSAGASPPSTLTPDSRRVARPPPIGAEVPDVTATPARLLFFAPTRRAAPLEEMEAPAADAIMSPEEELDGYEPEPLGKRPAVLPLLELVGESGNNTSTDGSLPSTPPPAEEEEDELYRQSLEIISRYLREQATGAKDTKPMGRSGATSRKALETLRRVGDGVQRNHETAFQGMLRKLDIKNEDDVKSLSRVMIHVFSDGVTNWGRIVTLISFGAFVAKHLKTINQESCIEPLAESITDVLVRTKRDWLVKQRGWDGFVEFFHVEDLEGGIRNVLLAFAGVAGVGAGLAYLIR
Experiment: Mcl-1 Homogeneous Time Resolved Fluorescence (HTRF) binding assay
Conditions: Mcl-1 IC50 (nM)
observed.property: IC50

Query string: // returns reported IC50 for input Cc1c2c(nn1C)CSCc1cc(n[nH]1)CSc1cc(c3ccccc3c1)OCCCc1c(C(=O)O)n(C)c3c-2c(Cl)ccc13 (single isomer, unassigned) [Example 11B]
Result string: < 10 nM

---

Each entry below lists one item and its recorded IC50 value.
Molecular target: Mcl-1 (Homo sapiens)
Test: Mcl-1 Homogeneous Time Resolved Fluorescence (HTRF) binding assay
Details: HTRF; 4 nM Mcl-1, 100 nM FAM-Bak peptide; 10-dose, singlicate; read-out: Mcl-1 IC50

Take a look at these entries with their results.
>>> measured("Cn1nc2cc1CSc1cc(c3ccccc3c1)OCCCc1c(C(=O)O)n(C)c3c(c(Cl)ccc13)-c1c(nn3c1CCC3)CSC2 (single isomer, unassigned) [Example 3A]")
"< 10 nM"
>>> measured("Cc1[nH]nc2c1-c1c(Cl)ccc3c(c(C(=O)O)n(C)c13)CCCOc1cc(cc3ccccc13)SCc1cc(nn1C(C)C)CSC2 (single isomer, unassigned)")
"< 10 nM"
>>> measured("Cc1[nH]nc2c1-c1c(Cl)ccc3c(c(C(=O)O)n(C)c13)CCCOc1cc(cc3ccccc13)SCc1cc(nn1C)CSC2 (single isomer, unassigned) [Example 6A]")
"< 10 nM"
>>> measured("Cn1nc2cc1CSc1cc(c3ccccc3c1)OCCCc1c(C(=O)O)n(C)c3c(c(Cl)ccc13)-c1c(nn3c1COCC3)CSC2 (single isomer, unassigned) [Example 4B]")
"10 to 100 nM"
>>> measured("Cn1nc2cc1CSc1cc(c3ccccc3c1)OCCCc1c(C(=O)O)n(C)c3c(c(Cl)ccc13)-c1c(nn(C)c1C#N)CSC2 (single isomer, unassigned) [Example 1A]")
"< 10 nM"
>>> measured("Cn1nc2cc1CSc1cc(c3ccccc3c1)OCCCc1c(C(=O)O)n(C)c3c(c(Cl)ccc13)-c1c(nn3c1COCC3)CSC2 (single isomer, unassigned) [Example 4A]")
"< 10 nM"

Query string: // lookup IC50 for Cn1nc2cc1CSc1cc(c3ccccc3c1)OCCCc1c(C(=O)O)n(C)c3c(c(Cl)ccc13)-c1c(nn3c1CCCC3)CSC2 (single isomer, unassigned) [Example 2B]
Result string: 10 to 100 nM

---

Target: Mcl-1 (Homo sapiens)
Test: Mcl-1 Homogeneous Time Resolved Fluorescence (HTRF) binding assay
Settings: HTRF; 4 nM Mcl-1, 100 nM FAM-Bak peptide; 10-dose, singlicate; read-out: Mcl-1 IC50
pIC50: −log10 of the molar value.
pIC50 for assorted molecules

Reference set, count: 2
>>> measured("Cc1nn(C)c2c1-c1c(F)ccc3c(c(C(=O)O)n(C)c13)CCCOc1cc(cc3ccccc13)SCc1cc(nn1CC(C)C)CSC2 (single isomer, unassigned) [Example 17A]")
"< 7.00"
>>> measured("Cc1[nH]nc2c1-c1c(Cl)ccc3c(c(C(=O)O)n(C)c13)CCCOc1cc(cc3ccccc13)SCc1cc(nn1C)CSC2 (single isomer, unassigned) [Example 6B]")
"7.00 to 8.00"

Consider now this further molecule.
Query string: Which measured pIC50 value corresponds to Cc1nn(C23CC(C2)C3)c2c1-c1c(Cl)ccc3c(c(C(=O)O)n(C)c13)CCCOc1cc(cc3ccccc13)SCc1cc(nn1C)CSC2 (single isomer, unassigned) [Example 20A] ?
Result string: 7.00 to 8.00

---

System: NCI-H929 (ATCC CRL-9068) cells
Assay: NCI-H929 cell proliferation assay (CellTiter-Glo)
Type: cell-based
Conditions: Homo sapiens, 72 h of compound treatment
observed.property: IC50

Query string: Look at this molecule and give its reported IC50. Cc1c2c(nn1C)CSCc1cc(n[nH]1)CSc1cc(c3ccccc3c1)OCCCc1c(C(=O)O)n(C)c3c-2c(Cl)ccc13 (single isomer, unassigned) [Example 11B]
Result string: < 100 nM

---

Below: a set of entries, each annotated with reported IC50.
Target: Mcl-1 (Homo sapiens)
Experiment: Mcl-1 Homogeneous Time Resolved Fluorescence (HTRF) binding assay
Details: HTRF; 4 nM Mcl-1, 100 nM FAM-Bak peptide; 10-dose, singlicate; read-out: Mcl-1 IC50

Here's what some known entries look like.
>>> measured("Cc1c2c(nn1C)CSCc1cc(n(C)n1)CSc1cc(c3ccccc3c1)OCCCc1c(C(=O)O)n(C)c3c-2c(F)ccc13 (single isomer, unassigned) [Example 14A]")
"< 10 nM"
>>> measured("Cn1nc2cc1CSc1cc(c3ccccc3c1)OCCCc1c(C(=O)O)n(C)c3c(c(Cl)ccc13)-c1c(nn3c1CCC3)CSC2 (single isomer, unassigned) [Example 3B]")
"10 to 100 nM"
>>> measured("CCn1nc2cc1CSc1cc(c3ccccc3c1)OCCCc1c(C(=O)O)n(C)c3c(c(F)ccc13)-c1c(C)nn(C)c1CSC2 (single isomer, unassigned) [Example 15A]")
"> 100 nM"
>>> measured("Cc1nn(C23CC(C2)C3)c2c1-c1c(Cl)ccc3c(c(C(=O)O)n(C)c13)CCCOc1cc(cc3ccccc13)SCc1cc(n[nH]1)CSC2 (single isomer, unassigned) [Example 21B]")
"< 10 nM"

Continue with the molecule presented below.
Query string: Would you kindly share the measured IC50 for Cn1nc2cc1CSc1cc(c3ccccc3c1)OCCCc1c(C(=O)O)n(C)c3c(c(Cl)ccc13)-c1c(nn3c1CSC3)CSC2 (single isomer, unassigned) [Example 5A] ?
Result string: < 10 nM

---

In this section we review reported IC50 values for a set of molecules.
Target: Mcl-1 (Homo sapiens, UniProt Q07820)
Assay: Mcl-1 Homogeneous Time Resolved Fluorescence (HTRF) binding assay
Conditions: HTRF; 4 nM Mcl-1, 100 nM FAM-Bak peptide; 10-dose, singlicate; read-out: Mcl-1 IC50

Query string: Entry Cc1[nH]nc2c1-c1c(F)ccc3c(c(C(=O)O)n(C)c13)CCCOc1cc(cc3ccccc13)SCc1cc(nn1C(C)C)CSC2 (single isomer, unassigned) [Example 7B] has what IC50?
Result string: < 10 nM

---

Target: Mcl-1 (Homo sapiens)
Assay: Mcl-1 Homogeneous Time Resolved Fluorescence (HTRF) binding assay
Details: HTRF; 4 nM Mcl-1, 100 nM FAM-Bak peptide; 10-dose, singlicate; read-out: Mcl-1 IC50
pIC50: −log10 of the molar value.
Reported pIC50 values are given for each entry in this list.

// known answers, use as guide
>>> measured("Cc1nn(C)c2c1-c1c(F)ccc3c(c(C(=O)O)n(C)c13)CCCOc1cc(cc3ccccc13)SCc1cc(nn1CC1CC1)CSC2 (single isomer, unassigned) [Example 18A]")
"< 7.00"
>>> measured("Cc1nn(C23CC(C2)C3)c2c1-c1c(Cl)ccc3c(c(C(=O)O)n(C)c13)CCCOc1cc(cc3ccccc13)SCc1cc(nn1C)CSC2 (single isomer, unassigned) [Example 20B]")
"> 8.00"
>>> measured("Cn1nc2cc1CSc1cc(c3ccccc3c1)OCCCc1c(C(=O)O)n(C)c3c(c(Cl)ccc13)-c1c(nn3c1CCCC3)CSC2 (single isomer, unassigned) [Example 2A]")
"> 8.00"
>>> measured("Cn1nc2cc1CSc1cc(c3ccccc3c1)OCCCc1c(C(=O)O)n(C)c3c(c(Cl)ccc13)-c1c(nn3c1CSC3)CSC2 (single isomer, unassigned) [Example 5B]")
"< 7.00"

Query string: Consider the molecule shown here: Cc1c2c(nn1C)CSCc1cc(n(C(C)C)n1)CSc1cc(c3ccccc3c1)OCCCc1c(C(=O)O)n(C)c3c-2c(Cl)ccc13 (single isomer, unassigned) [Example 10A] What is its recorded pIC50?
Result string: > 8.00

Query string: Returns the measured pIC50 for the input molecule. Input: Cc1nn(C)c2c1-c1c(F)ccc3c(c(C(=O)O)n(C)c13)CCCOc1cc(cc3ccccc13)SCc1cc(nn1C(C)C)CSC2 (single isomer, unassigned) [Example 16A]
Result string: > 8.00

Query string: Which value of pIC50 has been reported for Cn1nc2cc1CSc1cc(c3ccccc3c1)OCCCc1c(C(=O)O)n(C)c3c(c(Cl)ccc13)-c1c(nn(C)c1C#N)CSC2 (single isomer, unassigned) [Example 1B] in the records?
Result string: < 7.00
